Molecular target: T1, Human CD3eg linker (human)
T1 construct: Single chain: epsilon and gamma subunits of human CD3 joined by a 29-mer linker, Flag-tag at the C-terminus; also called recombinant human CD3
T1 chain: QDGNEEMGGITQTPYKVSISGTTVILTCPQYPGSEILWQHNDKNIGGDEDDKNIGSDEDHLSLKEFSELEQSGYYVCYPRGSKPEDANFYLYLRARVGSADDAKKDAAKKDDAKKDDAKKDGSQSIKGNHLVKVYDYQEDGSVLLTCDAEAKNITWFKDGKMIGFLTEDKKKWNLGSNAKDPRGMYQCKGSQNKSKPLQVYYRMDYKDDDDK
Experiment: Biacore SPR, vs template H183/L072
measuredAttribute: fold change of affinity (fold)
Please give a number only; it is taken to be in fold.

binder: H183/L072 VH A57P (antibody, name in Kabat numbering, V domains shown) VH: QVQLVESGGGLVQPGRSLRLSCAASGFTFSNAWMHWVRQAPGKGLEWVAQIKDKGNAYAPYYAPSVKGRFTISRDDSKNSIYLQMNSLKTEDTAVYYCHYVHYASASTVLPAFGVDAWGQGTTVTVSS VL: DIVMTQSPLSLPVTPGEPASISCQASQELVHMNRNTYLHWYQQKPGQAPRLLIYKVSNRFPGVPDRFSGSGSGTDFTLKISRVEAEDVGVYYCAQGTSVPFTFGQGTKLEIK
fold change of affinity (fold): 0.9

Request: Give fold change of affinity for the following binder: H183/L072 VH T28A (antibody, name in Kabat numbering, V domains shown) VH: QVQLVESGGGLVQPGRSLRLSCAASGFAFSNAWMHWVRQAPGKGLEWVAQIKDKGNAYAAYYAPSVKGRFTISRDDSKNSIYLQMNSLKTEDTAVYYCHYVHYASASTVLPAFGVDAWGQGTTVTVSS VL: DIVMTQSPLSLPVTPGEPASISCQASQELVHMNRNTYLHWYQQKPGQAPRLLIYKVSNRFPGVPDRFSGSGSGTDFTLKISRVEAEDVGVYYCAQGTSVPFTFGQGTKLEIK
Response: 0
